test system: SF-539 CNS; experiment: NCI-60 one-dose screen, 48 h; conditions: 10 µM
About 83,000 compounds went through this panel and 20% of them were active in at least one assay; those are over-represented in the sample as a whole. Activity calls are given as the source filed them. Rule for the calls: active = growth percent below 10; inactive = the rest.
Pick from active, inactive when you respond.

Inquiry: For this compound, state the assay outcome: CN1C(=O)[C@]23SSC1(C)C(=O)N2[C@H]1Nc2ccccc2C1([C@@]12c4ccccc4N[C@@H]1N1C(=O)C4(C)SS[C@]1(C(=O)N4C)[C@H]2O)[C@@H]3O (stereo not given in full)
Reply text: active

Inquiry: Now try CC1=C[C@H]2O[C@@H]3C[C@@H](O)[C@](C)([C@@]2(C)CC1)[C@@]31CO1 .
Reply text: inactive

Inquiry: Queued: COc1cccc2c1cc([N+](=O)[O-])c1c(C(=O)O)cc3c(c12)OCO3
Reply text: inactive

###

growth by entry:
tested on: HL-60(TB) leukemia; test: NCI-60 one-dose screen, 48 h (100 = growth as untreated, 0 = no growth, -100 = all killed); settings: 10 µM unless noted
The panel holds about 83,000 compounds, 20% with a hit somewhere; the sample as a whole holds those more often.
State just the number; it will be interpreted in %.

Consider the worked cases shown below.
Cc1cc(-c2ccc(Cl)cc2)n(Cc2nnc(SCC(=O)Nc3ccc(S(N)(=O)=O)cc3)n2C2CCCCC2)n1 116
CS(=O)(=O)c1ccc(/C(=N/N=C(N)N)c2ccc(F)cc2)cc1 97.8
CNC(=O)c1cc(Oc2ccc3c(c2)sc2nc(-c4ccc(N(C)C)cc4)cn23)ccn1 5.28
CN(C)C(=O)c1cc(-c2ccc3ncnc(NCc4ccccc4)c3c2)cnc1N 116

Please look at the following compound next.
Inquiry: Can you share its growth? I mean this compound: Cc1cc(O)c2c(c1)C(=O)C(c1c(C)cc3c(c1O)C(=O)C=CC3=O)=CC2=O
Reply text: 55

###

Measured growth values are reported for all entries that follow.
tested on: HL-60(TB) leukemia; experiment: NCI-60 one-dose screen, 48 h (100 = growth as untreated, 0 = no growth, -100 = all killed); settings: 10 µM unless noted
This is part of a sample that, as a whole, favours compounds with a hit. Of some 83,000 tested, about 20% had one in any assay.
Could you give me the number in %? Just the number is fine.

molecule	growth / %
O=C(NNc1nc2cc(F)cc(F)c2n2cccc12)c1ncccn1	-2.92

Inquiry: State the recorded growth for this entry: CNC(=O)c1cc(Oc2ccc3nc(NC(=O)c4cccc(C(F)(F)F)c4)sc3c2)ccn1
Reply text: 143

###

test system: HCT-116 colon; test: NCI-60 one-dose screen, 48 h; conditions: 10 µM
Compounds without any hit were thinned out: in the full panel of roughly 83,000, 20% have a hit. Calls of active or inactive are those of the source. How the source made its calls: active means growth percent below 10; inactive means the rest.
Select the correct class. Options are true (1) = active, false (0) = inactive and nothing else.

Inquiry: Record request — test call for CC1=C(CCC=NNC(N)=O)C2=C(C)C3(CC3)[C@@](C)(O)C(=O)C2=C1
Reply text: true (1)

Inquiry: Would you mind doing C[C@@H]1C[C@H]2C(=O)O[C@@H](C)C(NC(=O)[C@H](Cc3cc(F)cc(F)c3)NC(=O)Nc3ccc(OS(=O)(=O)F)cc3)C(=O)N3CCC[C@H]3C(=O)N3CCO[C@H](C)[C@H]3C(=O)N[C@@H](CO)C(=O)N2C1 (some centres undefined) as well?
Reply text: true (1)

Inquiry: Can you check CC1=C2C(=O)[C@](C)(CO)C=C2C(=O)[C@](C)(O)C12CC2 next?
Reply text: true (1)

Inquiry: Entry to check: COc1cc2c(cc1OC)[C@@H]1N(CC2)C(=O)c2ccccc2[C@@]1(C)C(=O)O
Reply text: false (0)

###

system: T-47D breast; assay: NCI-60 one-dose screen, 48 h; settings: 10 µM
Compounds without any hit were thinned out: in the full panel of roughly 83,000, 20% have a hit. The source made the active and inactive calls. The calls were made as follows: active = growth percent below 10; inactive = the rest.
Choose the fitting class; nothing outside label 1 (active), label 0 (inactive) is accepted.

Worked cases, answers included:
molecule	discrete-label
COC1[C@@H]2C[C@H]3C(C)(C)O[C@@](C/C=C(/C)C(=O)O)(C2=O)[C@]32Oc3c(CC=C(C)C)c4c(c(O)c3C(=O)[C@H]12)C=CC(C)(C)O4 (stereo partly specified)	label 1
O=C(CCCc1ccc(N(CCCl)CCCl)cc1)OCc1ccccc1	label 0
CC1=C(CN(O)C(N)=O)C2=C(C)C3(CC3)[C@](C)(O)C(=O)C2=C1	label 1
CN(CCF)/N=N/c1nc[nH]c1C(N)=O	label 0
COc1cc2c(cc1OC)[C@@H]1N(CC2)C(=O)c2ccccc2[C@@]1(C)C(=O)O	label 0

Could you now consider this next molecule?
Inquiry: Could you check what this test reported for N#Cc1nc(-c2ccccc2)oc1N1CCC(S(=O)(=O)F)CC1 ?
Reply text: label 0

###

Tested on: HL-60(TB) leukemia
Experiment: NCI-60 one-dose screen, 48 h
Conditions: 10 µM unless noted
Method: Growth inhibition of the HL-60(TB) human tumor cell line is measured as a screen for anti-cancer activity. Cells are grown in 96 well plates and exposed to the test compound for 48 hours. Compounds are tested at a single concentration, which is 10^-5 M for most compounds. The reported endpoint is percent growth (GI% or GIPRCNT), where numbers from 0 - 100% represent growth inhibition, and numbers from -100% - 0 represent cell death. For example, a value of 40 represents 60% growth inhibition. […]
About 83,000 compounds went through this panel and 20% of them were active in at least one assay; those are over-represented in the sample as a whole. The source made the active and inactive calls. The calls were made as follows: active = growth percent below 10; inactive = the rest.
Form entry, call: pick from TRUE = active, FALSE = inactive

Inquiry: What is the recorded call for this compound in the test? C#CCn1cc(/C=N/Nc2nc(-c3ccc(Br)cc3)cs2)c2ccccc21
Reply text: FALSE

Inquiry: Also COc1cc(/C=N/NC(=O)c2cn(C3CC3)c3c(OC)c(N4CC5CCCNC5C4)c(F)cc3c2=O)ccc1O (stereo not given) , if possible.
Reply text: TRUE

Inquiry: Try this compound next: Nc1ncc(-c2ccc(NS(=O)(=O)c3ccc(Cl)c(Cl)c3)cc2)[nH]1
Reply text: FALSE

Inquiry: Check CC[C@]12C=CCN3CC[C@]4(C(=C(C(=O)OC)C1)Nc1cc5c(cc14)[C@@H]1[C@H](O5)[C@@H](O)[C@@]4(CC)CC(C(=O)OC)=C5Nc6cc(OC)ccc6[C@@]56CCN1[C@@H]46)[C@@H]32 too.
Reply text: TRUE

Inquiry: What do we get for Cc1ccc(NC(=O)c2ccc(CN3CCN(C)CC3)c(C(F)(F)F)c2)cc1Oc1ccc(-c2[nH]nc3ncnc(N)c23)cc1 ?
Reply text: FALSE

Inquiry: Another compound to check: CCc1cc(OC(=O)N2CCN(CCC(C)(COC(C)(C)C)COC(C)(C)C)CC2)ccc1Nc1cc(-c2ccc(-n3cccn3)cc2)[nH]n1
Reply text: FALSE

Inquiry: For CC1(C)CC[C@]2(C(=O)O)CC[C@]3(C)C(=CCC4[C@@]5(C)C[C@@H](O)[C@@H]6OC(c7ccccc7O)OC[C@@]6(C)C5CC[C@]43C)C2C1 (stereo not given in full) then?
Reply text: FALSE

Inquiry: // query: COc1ccc(NC2=C(Br)C(=O)C(C)=C(C)C2=O)cc1OC
Reply text: TRUE

Inquiry: Repeat for the following compound: CC(=O)c1ccc(Nc2nc(SCC(C)C)nc(-c3ccc(F)cc3)c2C#N)cc1
Reply text: FALSE

Inquiry: Another: COc1ccc(-c2nc3ccc(-c4nnc(SCC(=O)Nc5ccc(C(=O)/C=C/c6ccccc6)cc5)o4)cc3[nH]2)cc1OC
Reply text: FALSE

###

tested on: HL-60(TB) leukemia; test: NCI-60 one-dose screen, 48 h (100 = growth as untreated, 0 = no growth, -100 = all killed); settings: 10 µM unless noted
The panel holds about 83,000 compounds, 20% with a hit somewhere; the sample as a whole holds those more often.
recorded-metric: growth (%)
Express it in %; write the number only.

molecule	measured-target	reading-unit	growth
CC(=O)Nc1nc(C)c(-c2csc(Nc3ccccc3)n2)s1	HL-60(TB) leukemia	%	33.6
CCN1C(=O)N(CC)C2SC(N/N=C/c3ccccc3F)=NC21 (centres undefined)	HL-60(TB) leukemia	%	0.098
C=C(C)[C@@H]1CC[C@]2(COC)CC[C@]3(C)[C@H](CC[C@@H]4[C@@]5(C)CCCNC(C)(C)[C@@H]5CC[C@]43C)[C@@H]12	HL-60(TB) leukemia	%	-69.2
CSc1ccc(/C(=N/N=C(N)N)c2ccc(Cl)cc2)cc1	HL-60(TB) leukemia	%	-45.1
O=C1c2c(c3c4cc(Br)ccc4[nH]c3c3ccc4ccccc4c23)C(=O)N1CCO	HL-60(TB) leukemia	%	96.7

Inquiry: Give recorded growth with HL-60(TB) leukemia for the following molecule: O=C(Cn1cc(CN2C(=O)c3ccc([N+](=O)[O-])cc3C2=O)nn1)Nc1ccc(F)cc1Cl
Reply text: 99.2

Inquiry: Same thing, different molecule: Cc1ccccc1NC1CC(=O)N(c2ccc(Cl)cc2Cl)C1=O (centres undefined)
Reply text: 102

Inquiry: Follow-up item: CS(=O)(=O)c1ccc(-c2nc3ccccn3c2/C=N/Nc2nc(-c3ccc(Cl)cc3)cs2)cc1
Reply text: 99.2

Inquiry: Also CS(=O)c1nccc(-c2c(-c3ccc(F)c(OCc4ccccc4)c3)nc3sccn23)n1 (centres undefined) , if possible.
Reply text: -6.35

Inquiry: Entry to check: COc1cc(OC)c(C2SCC(=O)N2Nc2ncnc3ccccc23)cc1OC (centres undefined)
Reply text: 103
